B1: minF1; a variant is named by its letters at N, in order (parent)
chain: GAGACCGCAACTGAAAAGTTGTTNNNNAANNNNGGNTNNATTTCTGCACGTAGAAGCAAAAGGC

Variants of: B1
Test: fraction ligated after 30 min (ligated reads / total reads); higher = more ligase activity
Settings: with F1*subA RNA substrate (template-directed ligation), 42 °C
Cut-off 0.004 on fraction ligated, inclusive. At or above means criterion met; below means criterion not met.

INSERT INTO measurements (biosequence, label_value) VALUES
  ('GAGACCGCAACTGAAAAGTTGTATCGAAATGGAGGGTTAATTTCTGCACGTAGAAGCAAAAGGC [TCGATGGAGTA T23A]', 'criterion met'),
  ('GAGACCGCAACTGAAAAGTTGTTAGAAATGGATGGGTTAATTTCTGCACGTAGAAGCAAAAGGC [AGAAGGATGTA A29T]', 'criterion met'),
  ('GAGACCGCAACTGAAAAGTTGTATCAGAATGGGGGTTGAATTTCTGCACGTAGAAGCAAAAGGC [TCAGTGGGTGA T23A]', 'criterion not met'),
  ('GAGACCGCAACTGAAAAGTTGTTATCGATGGAGGGTTGAATTTCTGCACGTAGAAGCAAAAGGC [ATCGGGAGTGA A29T]', 'criterion not met'),
  ('GAGACCGCAACTGAAAAGTTGTACAAAATGGATGGTTGAATTTCTGCACGTAGAAGCAAAAGGC [CAAAGGATTGA T23A A29T]', 'criterion met'),
  ('GAGACCGCAACTGAAAAGTTGTTACAAAATGTGGGTTGAATTTCTGCACGTAGAAGCAAAAGGC [ACAATGTGTGA]', 'criterion not met'),
  ('GAGACCGCAACTGAAAAGTTGTTTGAAATGGATGGGTTAATTTCTGCACGTAGAAGCAAAAGGC [TGAAGGATGTA A29T]', 'criterion not met'),
  ('GAGACCGCAACTGAAAAGTTGTACAGAAATGGTGGTTGAATTTCTGCACGTAGAAGCAAAAGGC [CAGATGGTTGA T23A]', 'criterion not met'),
  ('GAGACCGCAACTGAAAAGTTGTTATAAAATGAGGGTTGAATTTCTGCACGTAGAAGCAAAAGGC [ATAATGAGTGA]', 'criterion met'),
  ('GAGACCGCAACTGAAAAGTTGTTACGAAAGGTGGGTTGAATTTCTGCACGTAGAAGCAAAAGGC [ACGAGGTGTGA]', 'criterion not met'),
  ('GAGACCGCAACTGAAAAGTTGTTACAGAAATTGGGTTGAATTTCTGCACGTAGAAGCAAAAGGC [ACAGATTGTGA]', 'criterion met');
